The values you see were collected from the supplement of paper PMC10307832.

- Tested on: BEN
- assay comment: relative viability (nuclei count vs DMSO), 5 days (fraction); higher = more cells survive
- measurement setup: first compound 2.53 µM
// reported relative viability per item
endpoint label: relative viability

INSERT INTO assay_data (molecule, endpoint_label, readout_number) VALUES
  ('COc1nc(C)cnc1NS(=O)(=O)c1cccnc1-c1ccc(-c2nnco2)cc1 [Zibotentan] + CC(=O)c1c(C)c2cnc(Nc3ccc(N4CCNCC4)cn3)nc2n(C2CCCC2)c1=O [Palbociclib] (partner 0.5 µM)', 'relative viability', 0.44),
  ('COc1nc(C)cnc1NS(=O)(=O)c1cccnc1-c1ccc(-c2nnco2)cc1 [Zibotentan] + Cc1nc(Nc2ncc(C(=O)Nc3c(C)cccc3Cl)s2)cc(N2CCN(CCO)CC2)n1 [Dasatinib] (partner 0.075 µM)', 'relative viability', 0.353),
  ('O=c1cc(-c2cccc3c2Sc2ccccc2S3)oc(N2CCOCC2)c1 + COc1cccc2cc(-c3nc([C@H]4CC[C@H](C(=O)O)CC4)n4ncnc(N)c34)[nH]c12 [OSI-027] (partner 0.5 µM)', 'relative viability', 0.298),
  ('O=c1cc(-c2cccc3c2Sc2ccccc2S3)oc(N2CCOCC2)c1 + C[C@]1(O)C[C@@H](c2nc(-c3ccc4ccc(-c5ccccc5)nc4c3)c3c(N)nccn32)C1 [Linsitinib] (partner 1 µM)', 'relative viability', 0.898),
  ('O=c1cc(-c2cccc3c2Sc2ccccc2S3)oc(N2CCOCC2)c1 + N=C(N)NC(=N)NCCc1ccccc1 [Phenformin] (partner 250 µM)', 'relative viability', 0.217),
  ('O=c1cc(-c2cccc3c2Sc2ccccc2S3)oc(N2CCOCC2)c1 + Nc1nc2[nH]cc(CCc3ccc(C(=O)N[C@@H](CCC(=O)O)C(=O)O)cc3)c2c(=O)[nH]1 [Pemetrexed] (partner 0.2 µM)', 'relative viability', 0.801),
  ('O=c1cc(-c2cccc3c2Sc2ccccc2S3)oc(N2CCOCC2)c1 + CS(=O)(=O)N1CCN(Cc2cc3nc(-c4cccc5[nH]ncc45)nc(N4CCOCC4)c3s2)CC1 [Pictilisib] (partner 1 µM)', 'relative viability', 0.591),
  ('O=c1cc(-c2cccc3c2Sc2ccccc2S3)oc(N2CCOCC2)c1 + O=C(CCCCCCC(=O)Nc1ccccc1)NO [Vorinostat] (partner 1 µM)', 'relative viability', 0.59);
